Origin of measurements: ChEMBL document CHEMBL1133565

Examples of molecules with documented Ratio follow.
- Subject of test: Sodium-dependent serotonin transporter (Homo sapiens, UniProt P31645)
- Sequence (P31645 whole entry, looked up): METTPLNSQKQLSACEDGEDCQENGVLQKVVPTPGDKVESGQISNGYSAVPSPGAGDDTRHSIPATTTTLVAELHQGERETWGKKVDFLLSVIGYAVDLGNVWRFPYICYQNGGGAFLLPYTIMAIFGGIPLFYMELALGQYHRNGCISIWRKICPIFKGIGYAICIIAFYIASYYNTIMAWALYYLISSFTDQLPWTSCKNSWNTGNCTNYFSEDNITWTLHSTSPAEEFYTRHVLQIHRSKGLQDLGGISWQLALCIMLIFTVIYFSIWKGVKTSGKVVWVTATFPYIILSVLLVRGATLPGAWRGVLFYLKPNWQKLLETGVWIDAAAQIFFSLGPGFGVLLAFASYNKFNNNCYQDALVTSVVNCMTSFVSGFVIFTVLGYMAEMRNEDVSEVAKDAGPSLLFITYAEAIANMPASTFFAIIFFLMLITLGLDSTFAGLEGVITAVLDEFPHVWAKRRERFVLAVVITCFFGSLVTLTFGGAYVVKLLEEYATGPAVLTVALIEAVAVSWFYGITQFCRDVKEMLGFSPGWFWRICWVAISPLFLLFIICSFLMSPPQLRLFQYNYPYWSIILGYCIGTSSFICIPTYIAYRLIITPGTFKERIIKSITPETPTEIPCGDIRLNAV
- Assay remarks: Ratio of serotonin uptake to serotonin binding
The reply should be a number, written without any unit.

# example entries with known answers
Molecule	Ratio
CN(Cc1ccccc1)[C@@H]1C[C@@H](c2ccc(Cl)c(Cl)c2)c2ccccc21 (relative stereo)	21
CCCN(C)[C@H]1C[C@@H](c2ccc(Cl)c(Cl)c2)c2ccccc21 (relative stereo)	4
CCCN(C)[C@@H]1C[C@@H](c2ccc(Cl)c(Cl)c2)c2ccccc21 (relative stereo)	2.1
CN(Cc1ccccc1)[C@H]1C[C@@H](c2ccc(Cl)c(Cl)c2)c2ccccc21 (relative stereo)	2.3
CC(C)N(C)[C@@H]1C[C@@H](c2ccc(Cl)c(Cl)c2)c2ccccc21	34

Lookup: Give the measured Ratio of CN(C)[C@H]1C[C@@H](c2ccc(Cl)c(Cl)c2)c2ccccc21 (relative stereo) .
Found: 2.3

Lookup: Give the measured Ratio of CC(C)N(C)[C@H]1C[C@@H](c2ccc(Cl)c(Cl)c2)c2ccccc21 .
Found: 25

Lookup: Give the measured Ratio of CC(C)N[C@H]1C[C@@H](c2ccc(Cl)c(Cl)c2)c2ccccc21 (relative stereo) .
Found: 2.3
